The values you see were collected from ChEMBL document CHEMBL1140579.

# Tested on: J774.A1
# test: IL6 secretion in mouse J774A.1 cells at 20 uM after 24 hrs by ELISA
# test context: J774.A1, 24 h
Known % of control at 20 µM of a selection of compounds
Report the value in % with no unit label.

{"compound": "C=C1CC[C@@H]2[C@](C)(CO)[C@H](O)CC[C@@]2(C)[C@@H]1CC(OC(=O)c1ccc(C)cc1)C1=CCOC1=O (stereo not given in full)", "parameter": "% of control at 20 µM", "quantitative result": 128}
{"compound": "C=C1CC[C@@H]2[C@](C)(CO)[C@H](O)CC[C@@]2(C)[C@@H]1CC(OC(=O)c1ccccc1)C1=CCOC1=O (stereo not given in full)", "parameter": "% of control at 20 µM", "quantitative result": 82}
{"compound": "C[C@]1(COC(=O)c2ccccc2)[C@H]2CC[C@@]3(C)OC(C4=CCOC4=O)CC3[C@]2(C)CC[C@H]1OC(=O)c1ccccc1 (stereo not given in full)", "parameter": "% of control at 20 µM", "quantitative result": 48.2}
{"compound": "CCC(=O)OC[C@@]1(C)[C@H]2CC[C@@]3(C)OC(C4=CCOC4=O)CC3[C@]2(C)CC[C@H]1OC(=O)CC (stereo not given in full)", "parameter": "% of control at 20 µM", "quantitative result": 60.5}
{"compound": "C=C1CC[C@@H]2[C@](C)(CO)[C@H](O)CC[C@@]2(C)[C@@H]1CC(OC(=O)c1ccc([N+](=O)[O-])cc1)C1=CCOC1=O (stereo not given in full)", "parameter": "% of control at 20 µM", "quantitative result": 58.6}

query: Look up and report measured % of control at 20 µM for this entry: C=C1CC[C@@H]2[C@](C)(CO)[C@H](O)CC[C@@]2(C)[C@@H]1C/C=C1/C(=O)OC[C@H]1O [ANDROGRAPHOLIDE]
result: 49.2

query: Read off the recorded % of control at 20 µM for C=C1CC[C@@H]2[C@](C)(CO)[C@H](O)CC[C@@]2(C)[C@@H]1CC(OC(=O)CC)C1=CCOC1=O (stereo not given in full)
result: 82.6

query: Item C[C@]1(COC=O)[C@H]2CC[C@@]3(C)OC(C4=CCOC4=O)CC3[C@]2(C)CC[C@H]1OC(=O)c1ccccc1 (stereo not given in full) : provide % of control at 20 µM
result: 27.7

query: Given the compound C=C1CC[C@@H]2[C@](C)(CO)[C@H](O)CC[C@@]2(C)[C@@H]1CC(OC(=O)C/C=C/c1ccc2c(c1)OCO2)C1=CCOC1=O (stereo not given in full) , write its reported % of control at 20 µM.
result: 96

query: Specify measured % of control at 20 µM for CCCCCC(=O)OC[C@@]1(C)[C@H]2CC[C@@]3(C)OC(C4=CCOC4=O)CC3[C@]2(C)CC[C@H]1OC(=O)CCCCC (stereo not given in full) .
result: 31.4

====

# Tested on: J774.A1
# test: Inhibition of LPS-induced TNFalpha secretion in mouse J774A.1 cells at 20 uM after 24 hrs by ELISA; values are per cent of control
# test context: J774.A1, 24 h
parameter: level, % of control at 20 µM (%)
Response body: numeric value in %, unit text excluded.

{"compound": "CCCCCC(=O)OC[C@@]1(C)[C@H]2CC[C@@]3(C)OC(C4=CCOC4=O)CC3[C@]2(C)CC[C@H]1OC(=O)CCCCC (stereo partly drawn)", "unit text": "%", "level, % of control at 20 µM": 43.8}
{"compound": "CCCCCC(=O)O[C@@H]1CC[C@@]2(C)C3CC(C4=CCOC4=O)O[C@]3(C)CC[C@@H]2[C@]1(C)CO (stereo partly drawn)", "unit text": "%", "level, % of control at 20 µM": 106}

query: Tell us which level, % of control at 20 µM value is on record for C[C@]1(COC(=O)c2ccccc2)[C@H]2CC[C@@]3(C)OC(C4=CCOC4=O)CC3[C@]2(C)CC[C@H]1OC(=O)c1ccccc1 (stereo partly drawn)
result: 294
